# credit: patent US20150086555A1

Biological target: recombinant soluble homotrimeric HA of A/Vietnam/1203/04 (H5N1) (Influenza A virus A/VietNam/1203/2004(H5N1))
Assay: HA microarray, BCC supernatant
Conditions: remark: other sources report otherwise
ENDPOINT_LABEL: Trimeric HA Binding: RLU (RLU)
Lab book: enter the figure in RLU, no units written.

[[record]]
binder = "TCN-530 (5248_H10a) (antibody, V domains shown) VH: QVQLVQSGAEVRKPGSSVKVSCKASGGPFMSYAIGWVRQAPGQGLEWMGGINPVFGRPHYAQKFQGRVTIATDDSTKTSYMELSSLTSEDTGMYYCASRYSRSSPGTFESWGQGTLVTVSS VL: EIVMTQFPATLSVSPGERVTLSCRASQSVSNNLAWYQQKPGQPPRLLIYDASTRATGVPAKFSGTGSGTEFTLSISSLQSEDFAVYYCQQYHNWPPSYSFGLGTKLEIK"
result_unit = "RLU"
reported_measurement = 7150

[[record]]
binder = "TCN-536 (5095_N01) (antibody, V domains shown) VH: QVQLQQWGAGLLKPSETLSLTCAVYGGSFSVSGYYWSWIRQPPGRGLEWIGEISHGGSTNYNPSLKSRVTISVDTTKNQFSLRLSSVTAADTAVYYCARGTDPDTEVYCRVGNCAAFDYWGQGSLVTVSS VL: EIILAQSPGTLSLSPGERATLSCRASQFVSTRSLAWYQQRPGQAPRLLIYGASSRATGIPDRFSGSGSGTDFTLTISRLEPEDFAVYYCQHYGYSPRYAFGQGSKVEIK"
result_unit = "RLU"
reported_measurement = 146


Now for another entry.
Return Trimeric HA Binding: RLU (reported value) for this binder: TCN-539 (5056_A08) (antibody, V domains shown) VH: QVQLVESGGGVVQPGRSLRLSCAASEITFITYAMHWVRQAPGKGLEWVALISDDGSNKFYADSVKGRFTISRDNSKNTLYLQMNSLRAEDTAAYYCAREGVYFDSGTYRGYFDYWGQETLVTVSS VL: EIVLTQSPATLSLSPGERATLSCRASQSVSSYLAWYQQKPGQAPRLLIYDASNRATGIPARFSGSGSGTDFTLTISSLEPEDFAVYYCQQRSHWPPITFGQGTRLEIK 545
